Values from ChEMBL document CHEMBL4613282

- System under test: Delta-type opioid receptor (Rattus norvegicus, UniProt P33533)
- Sequence (P33533 whole entry): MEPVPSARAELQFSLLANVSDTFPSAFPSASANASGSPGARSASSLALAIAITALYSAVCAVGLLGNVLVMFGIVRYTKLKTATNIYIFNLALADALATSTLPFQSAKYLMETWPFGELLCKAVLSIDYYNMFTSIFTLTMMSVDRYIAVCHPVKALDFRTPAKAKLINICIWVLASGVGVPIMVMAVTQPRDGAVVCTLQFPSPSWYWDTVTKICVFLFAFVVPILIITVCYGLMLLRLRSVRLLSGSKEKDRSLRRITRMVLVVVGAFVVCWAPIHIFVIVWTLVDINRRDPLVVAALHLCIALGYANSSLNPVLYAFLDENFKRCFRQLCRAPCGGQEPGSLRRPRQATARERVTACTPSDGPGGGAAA
- Assay comment: Displacement of [3H]DPDPE from DOR in rat brain membranes incubated for 45 mins by liquid scintillation counting
Kindly state Ki for each of the entries shown.

Need Ki for each of these compounds.
1. C[C@H]1[C@H]2Cc3ccc(O)cc3[C@]1(C)CCN2CCN(Cc1ccccc1)c1ccccc1
2. Cc1cc(C)c(N(Cc2ccccc2)C(=O)CCN2CC[C@@]3(C)c4cc(O)ccc4C[C@@H]2[C@@H]3C)c(C)c1

1: > 1 µM; 2: > 5 µM

# compound `Cc1ccc(C)c(NCCN2CC[C@@]3(C)c4cc(O)ccc4C[C@@H]2[C@@H]3C)c1` ; its Ki = > 5 µM
